System: liver
Assay: In vivo gene expression, luciferase luminescence in the liver after tail vein administration (Experimental Example 7)
Settings: BALB/c mouse, tail vein, mRNA 0.05 mg/kg, 4.5 hr after administration; LNP cationic lipid:DOPC:Chol:DMG-PEG2k = 52.5:7.5:40:1.5, prepared as in Experimental Example 6
measurement label: amount of luminescence (photons/sec) in liver

{"columns": ["compound", "endpoint result"],
 "data": [
  ["CCCCCCCC/C=C\\CCCCCCCC(=O)Oc1ccc(CC(=O)OCCC2CCN(CCSSCCN3CCC(CCOC(=O)Cc4ccc(OC(=O)CCCCCCC/C=C\\CCCCCCCC)cc4)CC3)CC2)cc1 [Comparative Example, reference compound]", "2.05E+09"],
  ["CCCCCCCC/C=C\\CCCCCCCC(=O)Oc1ccc(CC(=O)OCCC2CCN(CCSSCCN3CCC(CCOC(=O)Cc4ccc(OC(=O)CCCC(=O)OC(CC(=O)OCCCC)(CC(=O)OCCCC)CC(=O)OCCCC)cc4)CC3)CC2)cc1", "1.72E+10"],
  ["CCCCCCC(C/C=C\\CCCCCCCC(=O)Oc1ccc(CC(=O)OCCC2CCN(CCSSCCN3CCC(CCOC(=O)Cc4ccc(OC(=O)CCCCCCC/C=C\\CC(CCCCCC)OC(=O)c5ccc(OCC)c(OCC)c5)cc4)CC3)CC2)cc1)OC(=O)c1ccc(OCC)c(OCC)c1 (stereo not shown)", "9.37E+09"],
  ["CCCCCCCC/C=C\\CCCCCCCC(=O)Oc1ccc(CC(=O)OCCC2CCN(CCSSCCN3CCC(CCOC(=O)Cc4ccc(OC(=O)CCCCCCC/C=C\\CC(CCCCCC)OC(=O)C(CC)CCCC)cc4)CC3)CC2)cc1 (stereo not shown)", "8.49E+09"]
]}
